Assay remarks: in vivo
Experimental setup: female, NSG (NOD.Cg-Prkdc^scid Il2rg^tm1Wjl/SzJ), mouse, plasma, iv, 0.5 mg/kg, plasma actinomycin D concentration, incurred reanalysis, incurred sample reanalysis table; mouse # 7, sampling 6 h
*1 amine or outer side, *2 acyl side, *3 side chain or, on linkers, in order; H or OH if unused. Where a SMILES comes first, the peptide text is derived from it. Bridges are numbered along the chain shown (N, C = ends). Roman numbers before positions name the chains, in order. [ ]: non-standard residue; d: D form. Actinocin(9to1) = Cc1c2oc3c(C)ccc(C(=O)[*:1])c3nc-2c(C(=O)[*:2])c(N)c1=O; NMeV = CN[C@H](C(=O)O)C(C)C; Sar = CNCC(=O)O

Compound	Readout units	level at 6 h
Cc1c2oc3c(C)ccc(C(=O)N[C@@H]4C(=O)N[C@H](C(C)C)C(=O)N5CCC[C@H]5C(=O)N(C)CC(=O)N(C)[C@@H](C(C)C)C(=O)O[C@@H]4C)c3nc-2c(C(=O)N[C@@H]2C(=O)N[C@H](C(C)C)C(=O)N3CCC[C@H]3C(=O)N(C)CC(=O)N(C)[C@@H](C(C)C)C(=O)O[C@@H]2C)c(N)c1=O [actinomycin D, Actinomycin D] (I: T[dV]P[Sar][NMeV] / II: T[dV]P[Sar][NMeV]; ester I:1-I:C, II:1-II:C; linker I:N-II:N via Actinocin(9to1))	ng/mL	5.23

Where do the numbers come from? From paper PMC8466300.
